Where do these numbers come from? They come from ChEMBL document CHEMBL4229524.

In this section we review reported IC50 values for a set of molecules.
Molecular target: Platelet-derived growth factor receptor beta (Homo sapiens, UniProt P09619)
Sequence (P09619 whole entry): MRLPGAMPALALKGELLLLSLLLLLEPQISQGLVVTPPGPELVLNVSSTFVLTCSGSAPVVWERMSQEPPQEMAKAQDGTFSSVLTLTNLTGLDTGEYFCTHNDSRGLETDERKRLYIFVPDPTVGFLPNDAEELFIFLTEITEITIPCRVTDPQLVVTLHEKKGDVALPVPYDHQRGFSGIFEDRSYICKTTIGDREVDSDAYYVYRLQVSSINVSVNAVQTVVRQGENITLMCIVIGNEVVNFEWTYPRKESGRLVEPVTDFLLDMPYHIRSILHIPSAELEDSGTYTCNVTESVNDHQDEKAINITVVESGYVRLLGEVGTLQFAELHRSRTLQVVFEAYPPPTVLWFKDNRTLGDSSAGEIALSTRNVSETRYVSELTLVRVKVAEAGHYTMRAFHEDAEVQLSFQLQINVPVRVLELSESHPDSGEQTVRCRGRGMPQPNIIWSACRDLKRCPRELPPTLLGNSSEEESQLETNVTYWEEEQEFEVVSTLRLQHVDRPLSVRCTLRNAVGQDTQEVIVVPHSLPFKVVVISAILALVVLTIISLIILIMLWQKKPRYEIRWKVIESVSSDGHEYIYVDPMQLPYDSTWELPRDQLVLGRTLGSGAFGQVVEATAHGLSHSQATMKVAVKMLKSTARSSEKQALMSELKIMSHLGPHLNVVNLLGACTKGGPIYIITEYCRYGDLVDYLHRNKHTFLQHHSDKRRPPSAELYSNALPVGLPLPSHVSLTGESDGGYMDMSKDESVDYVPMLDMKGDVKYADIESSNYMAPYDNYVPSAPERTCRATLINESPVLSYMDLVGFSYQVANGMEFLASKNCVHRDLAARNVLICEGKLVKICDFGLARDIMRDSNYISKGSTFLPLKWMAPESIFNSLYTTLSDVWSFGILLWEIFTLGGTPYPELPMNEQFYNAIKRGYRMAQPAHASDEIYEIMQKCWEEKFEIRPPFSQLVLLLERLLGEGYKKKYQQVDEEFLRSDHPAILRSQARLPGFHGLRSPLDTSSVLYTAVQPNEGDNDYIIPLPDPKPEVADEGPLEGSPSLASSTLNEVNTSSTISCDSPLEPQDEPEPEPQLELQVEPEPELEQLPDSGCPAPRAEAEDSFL
Assay: Inhibition of PDGF-BB-induced PDGFRbeta activation in human SH-SY5Y cells pretreated for 60 mins followed by PDGF-BB addition and measured after 10 mins by ELISA
Report the value in nM with no unit label.

Would you please look over these solved cases?
CCN(c1ccc(OC)cc1)c1ncnc2occ(C)c12 :: 51.4
CCc1ccc(N(C)c2ncnc3occ(C)c23)cc1 :: 28.9
CNc1ccc(N(C)c2ncnc3occ(C)c23)cc1 :: 57.8
COc1ccc(N(C)c2ncnc3occ(C)c23)cc1 :: 12.3
CCCN(c1ccc(OC)cc1)c1ncnc2occ(C)c12 :: 38.9

Record "COc1ccc(N(c2ncnc3occ(C)c23)C(C)C)cc1" / Platelet-derived growth factor receptor beta (Homo sapiens, UniProt P09619), IC50 recorded as 42.6

Record "Cc1coc2ncnc(N(C)c3ccc(N(C)C)cc3)c12" / Platelet-derived growth factor receptor beta (Homo sapiens, UniProt P09619), IC50 recorded as 63

Record "COc1ccc(Nc2ncnc3occ(C)c23)cc1" / Platelet-derived growth factor receptor beta (Homo sapiens, UniProt P09619), IC50 recorded as 57.3

Record "CSc1ccc(N(C)c2ncnc3occ(C)c23)cc1" / Platelet-derived growth factor receptor beta (Homo sapiens, UniProt P09619), IC50 recorded as 62.2
